Ki values, listed per item
- target: XIAP BIR3 domain (Homo sapiens)
- Construct: fluorescent probe 4 and the XIAP BIR3 domain (Sino Biological, Beijing, China) were used for all measurements
- Sequence (P98170 252-356 limits assumed): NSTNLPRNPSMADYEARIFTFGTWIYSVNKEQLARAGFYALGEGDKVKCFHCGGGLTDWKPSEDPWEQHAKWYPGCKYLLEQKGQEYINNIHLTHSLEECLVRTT
- assayDetails: Fluorescence polarization inhibition (competition) assay
- runConditions: XIAP BIR3 50 nM, fluorescent probe 4 2 nM
observable: Ki

molecule: CCC(NC(=O)[C@@H]1CCCN1C(=O)[C@@H](NC(=O)[C@H](C)NC)C(C)C)P(=O)(Oc1ccccc1)Oc1ccccc1 (stereo partly drawn) [Compound 31]
target: XIAP BIR3 domain (Homo sapiens)
recordedResult: 18.8 µM
--
molecule: CN[C@@H](C)C(=O)N[C@H](C(=O)N1CCC[C@H]1C(=O)NCP(=O)(C(C)(C)C)C(C)(C)C)C1CCCCC1 [Compound 6]
target: XIAP BIR3 domain (Homo sapiens)
recordedResult: 9.87 µM
--
molecule: CN[C@@H](C)C(=O)N[C@H](C(=O)N1CCC[C@H]1C(=O)NC(Cc1ccccc1)P(=O)(c1ccccc1)c1ccccc1)C(C)C (stereo partly drawn) [Compound 13]
target: XIAP BIR3 domain (Homo sapiens)
recordedResult: 0.75 µM
